target: Peroxisome proliferator-activated receptor alpha (Homo sapiens, UniProt Q07869); assay: Antagonist activity at human PPAR-alpha assessed as inhibition of GW7647-induced effect after overnight incubation by cell-based luciferase reporter gene assay
Please assign Condition not met whenever IC50 is at or above 10 nM, and Condition met whenever it is below.

## Input Hello, I'm reviewing records and need to know if IC50 of CCn1c(CCCc2ccc(OC(C)(C)C(=O)NS(=O)(=O)C3CCCCC3)cc2)nn(Cc2ccc(C(C)(C)C)cc2)c1=O is below 10 nM. Could you check?
## Output Condition met

## Input Hello, I'm reviewing records and need to know if IC50 of CCn1c(CCCc2ccc(OC(C)(C)C(=O)NS(=O)(=O)c3ccc(C)cc3)cc2)nn(Cc2ccc(C(C)(C)C)cc2)c1=O is below 10 nM. Could you check?
## Output Condition met

## Input Hello, I'm reviewing records and need to know if IC50 of CCn1c(CCCc2ccc(-c3ncc(NS(=O)(=O)c4ccccc4)cn3)cc2)nn(Cc2ccc(C(C)(C)C)cc2)c1=O is below 10 nM. Could you check?
## Output Condition not met

## Input Hello, I'm reviewing records and need to know if IC50 of CCn1c(CCCc2ccc(OC(C)(C)C(=O)NS(=O)(=O)c3ccc(C(C)C)cc3)cc2)nn(Cc2ccc(C(C)(C)C)cc2)c1=O is below 10 nM. Could you check?
## Output Condition not met

## Input Hello, I'm reviewing records and need to know if IC50 of CCn1c(CCCc2ccc(-c3cnc(NS(=O)(=O)c4ccccc4)cn3)cc2)nn(Cc2ccc(C(C)(C)C)cc2)c1=O is below 10 nM. Could you check?
## Output Condition not met

## Input Hello, I'm reviewing records and need to know if IC50 of CCn1c(CCCc2ccc(-c3ccc(NS(=O)(=O)c4ccc(-c5ccc(OC)cc5)cc4)cc3)cc2)nn(Cc2ccc(C(C)(C)C)cc2)c1=O is below 10 nM. Could you check?
## Output Condition not met

## Input Hello, I'm reviewing records and need to know if IC50 of CCn1c(CCCc2ccc(-c3ccc(NS(C)(=O)=O)cn3)cc2)nn(Cc2ccc(C(C)(C)C)cc2)c1=O is below 10 nM. Could you check?
## Output Condition not met

---

Target: Peroxisome proliferator-activated receptor alpha (Homo sapiens)
Sequence (Q07869 whole entry): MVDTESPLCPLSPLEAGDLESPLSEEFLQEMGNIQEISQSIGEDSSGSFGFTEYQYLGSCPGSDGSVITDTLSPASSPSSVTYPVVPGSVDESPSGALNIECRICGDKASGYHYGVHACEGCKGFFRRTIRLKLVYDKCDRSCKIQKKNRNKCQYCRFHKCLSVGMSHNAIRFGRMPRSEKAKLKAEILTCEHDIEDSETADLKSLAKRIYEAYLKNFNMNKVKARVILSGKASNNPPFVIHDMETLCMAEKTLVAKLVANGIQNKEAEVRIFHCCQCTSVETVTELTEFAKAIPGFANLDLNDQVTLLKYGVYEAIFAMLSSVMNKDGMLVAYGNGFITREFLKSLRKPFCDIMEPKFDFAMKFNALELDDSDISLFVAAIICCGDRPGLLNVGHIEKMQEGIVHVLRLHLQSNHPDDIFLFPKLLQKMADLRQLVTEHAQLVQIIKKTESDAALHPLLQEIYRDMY
Assay: Antagonist activity at GST-tagged PPAR-alpha (unknown origin) assessed as inhibition of GW7647-induced effect after 2 hrs by TR-FRET assay
QUANTITY_MEASURED: EC50
Reply with the number, then its unit.

## Input What value of EC50 has been reported for the following compound? CCn1c(CCCc2ccc(-c3ccc(NS(=O)(=O)c4ccccc4)cn3)cc2)nn(Cc2ccc(C(C)(C)C)cc2)c1=O
## Output 1.4 µM

---

Field: remaining at 0.5 h, 1 µM. Provide a value for each of the compounds that follow.
experiment: Metabolic stability in mouse plasma assessed as compound remaining at 1 uM after 30 mins by LC-MS/MS analysis; format: ADME, cell-free; conditions: read-out: Stability
Answer format: numeric, % implied, no suffix.

## Input What value of remaining at 0.5 h, 1 µM has been reported for the following compound? CCn1c(CCCc2ccc(OC(C)(C)C(=O)NS(=O)(=O)c3ccccc3)cc2)nn(Cc2ccc(C(C)(C)C)cc2)c1=O
## Output 6.7

## Input What value of remaining at 0.5 h, 1 µM has been reported for the following compound? CCn1c(CCCc2ccc(CC(C)(C)C(=O)NS(=O)(=O)c3ccccc3)cc2)nn(Cc2ccc(C(C)(C)C)cc2)c1=O
## Output 80

## Input What value of remaining at 0.5 h, 1 µM has been reported for the following compound? CCn1c(CCCc2ccc(OC(C)(C)C(=O)NS(=O)(=O)c3ccc(C(F)(F)F)cc3)cc2)nn(Cc2ccc(C(C)(C)C)cc2)c1=O
## Output 103

## Input What value of remaining at 0.5 h, 1 µM has been reported for the following compound? CCn1c(CCCc2ccc(OC(C)(C)C(=O)NS(=O)(=O)c3ccoc3)cc2)nn(Cc2ccc(C(C)(C)C)cc2)c1=O
## Output 75.4

## Input What value of remaining at 0.5 h, 1 µM has been reported for the following compound? CCn1c(CCCc2ccc(OC(C)(C)C(=O)NS(=O)(=O)C3CCCCC3)cc2)nn(Cc2ccc(C(C)(C)C)cc2)c1=O
## Output 60.5

## Input What value of remaining at 0.5 h, 1 µM has been reported for the following compound? CCn1c(CCCc2ccc(OC(C)(C)C(=O)NS(=O)(=O)C3=CCOC=C3)cc2)nn(Cc2ccc(C(C)(C)C)cc2)c1=O
## Output 86.9

## Input What value of remaining at 0.5 h, 1 µM has been reported for the following compound? CCn1c(CCCc2ccc(OC(C)(C)C(=O)NS(=O)(=O)C3CCCC3)cc2)nn(Cc2ccc(C(C)(C)C)cc2)c1=O
## Output 21

## Input What value of remaining at 0.5 h, 1 µM has been reported for the following compound? CCn1c(CCCc2ccc(OC(C)(C)C(=O)NS(=O)(=O)c3ccc(C)cc3)cc2)nn(Cc2ccc(C(C)(C)C)cc2)c1=O
## Output 73.1

## Input What value of remaining at 0.5 h, 1 µM has been reported for the following compound? CCn1c(CCCc2ccc(OC(C)(C)C(=O)NS(=O)(=O)c3ccc(C(C)C)cc3)cc2)nn(Cc2ccc(C(C)(C)C)cc2)c1=O
## Output 89.5

## Input What value of remaining at 0.5 h, 1 µM has been reported for the following compound? CCn1c(CCCc2ccc(OC(C)(C)C(=O)NS(=O)(=O)C3CC3)cc2)nn(Cc2ccc(C(C)(C)C)cc2)c1=O
## Output 1.7

## Input What value of remaining at 0.5 h, 1 µM has been reported for the following compound? CCn1c(CCCc2ccc(OC(C)(C)C(=O)NS(=O)(=O)c3cccnc3)cc2)nn(Cc2ccc(C(C)(C)C)cc2)c1=O
## Output 82.4

---

Molecular target: UniProtKB P04150
Sequence (P04150 whole entry): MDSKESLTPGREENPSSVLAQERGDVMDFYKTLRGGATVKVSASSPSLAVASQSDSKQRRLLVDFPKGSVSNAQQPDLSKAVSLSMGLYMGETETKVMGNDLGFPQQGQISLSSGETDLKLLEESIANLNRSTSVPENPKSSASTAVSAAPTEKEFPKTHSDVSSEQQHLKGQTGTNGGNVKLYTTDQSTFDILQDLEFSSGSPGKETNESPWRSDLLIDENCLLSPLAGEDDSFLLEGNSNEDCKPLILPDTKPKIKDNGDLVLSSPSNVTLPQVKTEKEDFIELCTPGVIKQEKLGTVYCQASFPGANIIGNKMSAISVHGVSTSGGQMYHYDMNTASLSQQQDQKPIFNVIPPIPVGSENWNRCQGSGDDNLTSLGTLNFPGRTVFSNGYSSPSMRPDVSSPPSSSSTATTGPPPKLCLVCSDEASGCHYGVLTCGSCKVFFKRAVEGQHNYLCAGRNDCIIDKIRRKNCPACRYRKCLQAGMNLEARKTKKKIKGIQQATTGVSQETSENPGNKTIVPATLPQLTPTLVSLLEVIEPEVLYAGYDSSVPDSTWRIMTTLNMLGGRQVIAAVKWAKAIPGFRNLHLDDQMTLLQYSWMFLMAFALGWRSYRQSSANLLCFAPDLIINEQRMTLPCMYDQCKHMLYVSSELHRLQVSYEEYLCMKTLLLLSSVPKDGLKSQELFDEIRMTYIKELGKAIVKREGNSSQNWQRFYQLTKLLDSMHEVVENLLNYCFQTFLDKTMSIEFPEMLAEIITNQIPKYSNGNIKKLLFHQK
QUANTITY_MEASURED: pIC50
// scale note: pIC50 = -log10(conc_M); give the bare number

## Input What value of pIC50 has been reported for the following compound? CCn1c(CCCc2ccc(-c3ccc(NS(=O)(=O)c4ccc(-c5ccc(OC)cc5)cc4)cc3)cc2)nn(Cc2ccc(C(C)(C)C)cc2)c1=O
## Output 4.49
